Test system: KDM5A/B
Assay: In vitro cell-based assay: immuno-blot quantification of tri-methyl H3K4 in ZR-75-1 breast cancer cells
Settings: 72 hours, tri-methyl H3K4 level relative to GAPDH, percent of DMSO, read-out: Cellular IC50
pIC50: −log10 of the molar value.
MEASUREMENT_LABEL: pIC50

Worked examples follow.
{"MOLECULE": "COc1cccc(Oc2nc(O)c3ccncc3n2)c1 [Example 44]", "RECORDED_RESULT": "< 5.00"}
{"MOLECULE": "Cn1cnc(-c2nccc3c(O)nc(OCC(F)(F)F)nc23)c1 [Example 70]", "RECORDED_RESULT": "5.00 to 6.00"}
{"MOLECULE": "O=C(c1ccccc1)N1CC[C@@H](n2cc(Oc3nc(O)c4ccncc4n3)cn2)C1 [Example 132]", "RECORDED_RESULT": "5.00 to 6.00"}
{"MOLECULE": "CCOc1c(F)cc(Oc2nc(O)c3ccncc3n2)cc1F [Example 45]", "RECORDED_RESULT": "< 5.00"}

Sample CN(C)c1cccc(Oc2nc(O)c3ccncc3n2)c1 [Example 50] ; pIC50 observed: < 5.00

====

Here, each record is paired with measured IC50 data.
Protein target, amino acids: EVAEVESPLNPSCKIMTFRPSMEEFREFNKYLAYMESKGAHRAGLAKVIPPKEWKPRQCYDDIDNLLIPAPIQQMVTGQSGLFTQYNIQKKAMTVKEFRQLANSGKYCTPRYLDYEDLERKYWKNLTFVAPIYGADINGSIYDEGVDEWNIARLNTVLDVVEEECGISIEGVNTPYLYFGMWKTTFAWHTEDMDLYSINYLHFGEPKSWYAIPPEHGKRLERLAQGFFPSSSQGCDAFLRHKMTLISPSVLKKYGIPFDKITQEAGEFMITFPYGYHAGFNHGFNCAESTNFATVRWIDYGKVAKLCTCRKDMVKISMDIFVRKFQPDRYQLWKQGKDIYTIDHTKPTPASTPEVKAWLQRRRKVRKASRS

{"MOL": "Oc1nc(OC2CCCC2)nc2cnccc12", "IC50": "100 to 1000 nM"}

Sample C[C@H](c1ccccc1F)n1cc(Oc2nc(O)c3ccncc3n2)cn1 ; IC50 observed: ≤ 100 nM

Sample Cn1cnc(-c2nccc3c(O)nc(OCc4ccc(F)cc4)nc23)c1 ; IC50 observed: 100 to 1000 nM

Sample O=C(c1ccccc1)N1CCC[C@H](n2cc(Oc3nc(O)c4ccncc4n3)cn2)C1 ; IC50 observed: ≤ 100 nM

====

Target: Jarid1B (Homo sapiens, UniProt Q9UGL1)
Construct: purchased BPS Bioscience or custom made by MolecularThroughput 50121
Sequence (Q9UGL1 2-751): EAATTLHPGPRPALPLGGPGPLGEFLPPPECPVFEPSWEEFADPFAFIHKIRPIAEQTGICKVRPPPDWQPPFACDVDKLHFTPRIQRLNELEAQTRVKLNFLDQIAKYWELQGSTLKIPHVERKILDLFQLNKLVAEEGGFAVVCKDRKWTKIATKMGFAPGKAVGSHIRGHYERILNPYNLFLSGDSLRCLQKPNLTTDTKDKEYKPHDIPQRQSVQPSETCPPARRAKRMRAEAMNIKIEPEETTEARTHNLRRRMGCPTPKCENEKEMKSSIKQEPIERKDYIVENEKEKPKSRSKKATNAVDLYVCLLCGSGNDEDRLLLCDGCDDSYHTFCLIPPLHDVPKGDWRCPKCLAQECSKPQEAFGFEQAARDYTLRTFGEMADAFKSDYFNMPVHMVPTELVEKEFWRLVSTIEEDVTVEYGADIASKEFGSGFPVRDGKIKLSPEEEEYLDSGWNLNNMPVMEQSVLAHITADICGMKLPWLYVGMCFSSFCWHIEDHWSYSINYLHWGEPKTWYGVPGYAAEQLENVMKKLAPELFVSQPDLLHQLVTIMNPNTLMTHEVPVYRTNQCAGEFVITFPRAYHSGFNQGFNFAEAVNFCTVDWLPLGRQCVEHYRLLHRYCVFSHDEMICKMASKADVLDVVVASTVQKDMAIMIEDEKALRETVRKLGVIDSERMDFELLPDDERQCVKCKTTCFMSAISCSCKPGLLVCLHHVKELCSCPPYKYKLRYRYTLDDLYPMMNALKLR
Test: Jarid1B in vitro enzyme inhibition assay (TR-FRET)
Assay type: biochemical
pIC50: −log10 of the molar value.
Here, each record is paired with measured pIC50 data.

Worked examples follow.
{"COMPOUND": "Oc1nc(Oc2cnn([C@@H]3CCNC3)c2)nc2cnccc12", "MEASUREMENT_LABEL": "pIC50", "RECORDED_RESULT": "≥ 7.00"}
{"COMPOUND": "CC(=O)N1CC[C@@H](n2cc(Oc3nc(O)c4ccncc4n3)cn2)C1", "MEASUREMENT_LABEL": "pIC50", "RECORDED_RESULT": "≥ 7.00"}
{"COMPOUND": "COc1nc(O)c2ccncc2n1 [Example 8, 2-methoxypyrido[3,4-d]pyrimidin-4-ol]", "MEASUREMENT_LABEL": "pIC50", "RECORDED_RESULT": "6.00 to 7.00"}

Sample CC(C)n1cc(Oc2nc3cnccc3c(=O)[nH]2)cn1 ; pIC50 observed: ≥ 7.00

Just for reference, patent US10526327B2 is where these values come from.
